Would you mind telling me the reported LYMPHOCYTE of each entry?
Organism: Rattus norvegicus
Assay: DrugMatrix - Regimen: Daily Repeat
Assay type: toxicity, organism-based, Sprague-Dawley
Design: regimen Daily Repeat, gender Male, age 6-8 weeks
Details: in vivo, po, 100 mg/kg, 72 h, tissue Blood, route oral GAVAGE, dose level Low, time 3 day, vehicle .5 % CMC
Give the value, in units of %, as a plain number.

Incoming: Consider the compound CC[C@]1(O)CC[C@H]2[C@@H]3CCC4=CCCC[C@@H]4[C@H]3CC[C@@]21C and give its measured LYMPHOCYTE.
Outgoing: 79.1

Incoming: Consider the compound Nc1nc2c(c(=O)[nH]1)N(C=O)C(CNc1ccc(C(=O)N[C@@H](CCC(=O)O)C(=O)O)cc1)CN2 (some centres undefined) [LEUCOVORIN] and give its measured LYMPHOCYTE.
Outgoing: 89.67

Incoming: Consider the compound CC=Cc1ccc(O)c(OC)c1 [ISOEUGENOL] and give its measured LYMPHOCYTE.
Outgoing: 87.33

Incoming: Consider the compound C#C[C@]1(O)CC[C@H]2[C@@H]3CCC4=Cc5oncc5C[C@]4(C)[C@H]3CC[C@@]21C [DANAZOL] and give its measured LYMPHOCYTE.
Outgoing: 84.33

---

Species on record: Rattus norvegicus
Assay: DrugMatrix - Regimen: Daily Repeat
Assay type: toxicity, organism-based, Sprague-Dawley
Set-up: regimen Daily Repeat, gender Male, age 6-8 weeks
Conditions: in vivo, po, 0 mg/kg, 120 h, tissue Blood, route oral GAVAGE, dose level Control, time 5 day, vehicle .5 % CMC
Would you mind telling me the reported ABSOLUTE MONOCYTE of each entry?
Give the value, in units of CELLS/uL, as a plain number.

Incoming: Consider the molecule CC(C)(Sc1cc(C(C)(C)C)c(O)c(C(C)(C)C)c1)Sc1cc(C(C)(C)C)c(O)c(C(C)(C)C)c1 [PROBUCOL] and give its measured ABSOLUTE MONOCYTE.
Outgoing: 29.17

Incoming: Consider the molecule CCCCC1C(=O)N(c2ccccc2)N(c2ccccc2)C1=O [PHENYLBUTAZONE] and give its measured ABSOLUTE MONOCYTE.
Outgoing: 203.17

Incoming: Consider the molecule Cc1cnc(C(=O)NCCc2ccc(S(=O)(=O)NC(=O)NC3CCCCC3)cc2)cn1 [GLIPIZIDE] and give its measured ABSOLUTE MONOCYTE.
Outgoing: 303.83

Incoming: Consider the molecule CCOC(=O)[C@H](CCc1ccccc1)N[C@@H](C)C(=O)N1Cc2ccccc2C[C@H]1C(=O)O and give its measured ABSOLUTE MONOCYTE.
Outgoing: 303.83

Incoming: Consider the molecule CO[C@H]1C[C@@H]2CC[C@@H](C)[C@@](O)(O2)C(=O)C(=O)N2CCCC[C@H]2C(=O)O[C@H]([C@H](C)C[C@@H]2CC[C@@H](O)[C@H](OC)C2)CC(=O)[C@H](C)/C=C(\C)[C@@H](O)[C@@H](OC)C(=O)[C@H](C)C[C@H](C)/C=C/C=C/C=C/1C [SIROLIMUS] and give its measured ABSOLUTE MONOCYTE.
Outgoing: 102.83

Incoming: Consider the molecule COc1ccccc1OCC(O)COC(N)=O (centres undefined) [METHOCARBAMOL] and give its measured ABSOLUTE MONOCYTE.
Outgoing: 139.83

Incoming: Consider the molecule CC(=O)O[C@]1(C(C)=O)CC[C@H]2[C@@H]3C=C(Cl)C4=CC(=O)[C@@H]5C[C@@H]5[C@]4(C)[C@H]3CC[C@@]21C [CYPROTERONE ACETATE] and give its measured ABSOLUTE MONOCYTE.
Outgoing: 303.83

---

Species on record: Rattus norvegicus
Assay: DrugMatrix - Regimen: Daily Repeat
Assay type: toxicity, organism-based, Sprague-Dawley
Set-up: regimen Daily Repeat, gender Male, age 6-8 weeks
Conditions: in vivo, po, 100 mg/kg, 120 h, tissue Plasma, route oral GAVAGE, dose level Low, time 5 day, vehicle .5 % CMC
Property measured: SODIUM (MEQ/L)
Give the value, in units of MEQ/L, as a plain number.

Incoming: Consider the compound CC=Cc1ccc(O)c(OC)c1 [ISOEUGENOL] and give its measured SODIUM.
Outgoing: 146.53

Incoming: Consider the compound CC[C@]1(O)CC[C@H]2[C@@H]3CCC4=CCCC[C@@H]4[C@H]3CC[C@@]21C and give its measured SODIUM.
Outgoing: 147

Incoming: Consider the compound C#C[C@]1(O)CC[C@H]2[C@@H]3CCC4=Cc5oncc5C[C@]4(C)[C@H]3CC[C@@]21C [DANAZOL] and give its measured SODIUM.
Outgoing: 142.4

Incoming: Consider the compound Nc1nc2c(c(=O)[nH]1)N(C=O)C(CNc1ccc(C(=O)N[C@@H](CCC(=O)O)C(=O)O)cc1)CN2 (some centres undefined) [LEUCOVORIN] and give its measured SODIUM.
Outgoing: 146.23

---

Species: Rattus norvegicus
Experiment: DrugMatrix - Regimen: Daily Repeat
Assay type: toxicity, organism-based, Sprague-Dawley
Design: regimen Daily Repeat, gender Male, age 6-8 weeks
Details: in vivo, po, 0 mg/kg, 120 h, tissue Plasma, route oral GAVAGE, dose level Control, time 5 day, vehicle .5 % CMC
Property measured: ASPARTATE AMINOTRANSFERASE (u/L)
Give the value, in units of u/L, as a plain number.

Incoming: Consider the compound CC[C@]1(O)CC[C@H]2[C@@H]3CCC4=CCCC[C@@H]4[C@H]3CC[C@@]21C and give its measured ASPARTATE AMINOTRANSFERASE.
Outgoing: 74.17

Incoming: Consider the compound CC(C)(Sc1cc(C(C)(C)C)c(O)c(C(C)(C)C)c1)Sc1cc(C(C)(C)C)c(O)c(C(C)(C)C)c1 [PROBUCOL] and give its measured ASPARTATE AMINOTRANSFERASE.
Outgoing: 76.5

Incoming: Consider the compound C[C@@H]1CC[C@H]2[C@@H](C)C(=O)O[C@@H]3O[C@@]4(C)CC[C@@H]1[C@]32OO4 [ARTEMISININ] and give its measured ASPARTATE AMINOTRANSFERASE.
Outgoing: 89.67

Incoming: Consider the compound C[C@]12C/C(=C/O)C(=O)C[C@@H]1CC[C@@H]1[C@@H]2CC[C@@]2(C)[C@H]1CC[C@]2(C)O [OXYMETHOLONE] and give its measured ASPARTATE AMINOTRANSFERASE.
Outgoing: 65.83

---

Organism: Rattus norvegicus
Assay: DrugMatrix - Regimen: Daily Repeat
Format: toxicity, organism-based, Sprague-Dawley
Set-up: regimen Daily Repeat, gender Male, age 6-8 weeks
Conditions: in vivo, po, 0 mg/kg, 72 h, tissue Blood, route oral GAVAGE, dose level Control, time 3 day, vehicle 100 % WATER
# label = 1 if ABSOLUTE LYMPHOCYTE >= 10000 CELLS/uL else 0

Incoming: Assess whether reported ABSOLUTE LYMPHOCYTE for CCCc1nn(C)c2c(=O)[nH]c(-c3cc(S(=O)(=O)N4CCN(C)CC4)ccc3OCC)nc12 sits at 10000 CELLS/uL or higher.
Outgoing: 0

Incoming: Assess whether reported ABSOLUTE LYMPHOCYTE for CN1C2CCCC1CC(NC(=O)c1nn(C)c3ccccc13)C2 (centres undefined) [GRANISETRON] sits at 10000 CELLS/uL or higher.
Outgoing: 0

Incoming: Assess whether reported ABSOLUTE LYMPHOCYTE for CC(C)(C)NC[C@H](O)COc1nsnc1N1CCOCC1 [TIMOLOL] sits at 10000 CELLS/uL or higher.
Outgoing: 0

Incoming: Assess whether reported ABSOLUTE LYMPHOCYTE for CCCCCCCCCCCCCCCC[n+]1ccccc1.[Br-] sits at 10000 CELLS/uL or higher.
Outgoing: 1

Incoming: Assess whether reported ABSOLUTE LYMPHOCYTE for CC[C@H]1OC(=O)[C@H](C)[C@@H](O[C@H]2C[C@@](C)(OC)[C@@H](O)[C@H](C)O2)[C@H](C)[C@@H](O[C@@H]2O[C@H](C)C[C@H](N(C)C)[C@H]2O)[C@](C)(O)C[C@@H](C)CN(C)[C@H](C)[C@@H](O)[C@]1(C)O [AZITHROMYCIN] sits at 10000 CELLS/uL or higher.
Outgoing: 1

Incoming: Assess whether reported ABSOLUTE LYMPHOCYTE for Nc1ccc(S(=O)(=O)Nc2nccs2)cc1 [SULFATHIAZOLE] sits at 10000 CELLS/uL or higher.
Outgoing: 0

Incoming: Assess whether reported ABSOLUTE LYMPHOCYTE for O=C(O)c1cccnc1 [NIACIN] sits at 10000 CELLS/uL or higher.
Outgoing: 1

Incoming: Assess whether reported ABSOLUTE LYMPHOCYTE for Cc1c(N(C)CS(=O)(=O)[O-])c(=O)n(-c2ccccc2)n1C.[Na+] [DIPYRONE SODIUM] sits at 10000 CELLS/uL or higher.
Outgoing: 1

Incoming: Assess whether reported ABSOLUTE LYMPHOCYTE for O=P1(N(CCCl)CCCl)NCCCO1 (centres undefined) [CYCLOPHOSPHAMIDE ANHYDROUS] sits at 10000 CELLS/uL or higher.
Outgoing: 0
